system: Bacillus thuringiensis; assay: Antimicrobial activity against Bacillus thuringiensis after 24 hrs by spectrophotometry; type: functional
Entries and their MIC values follow.

Examples with their reported MIC follow.
CCOC(=O)C1C(c2ccc(O)cc2)NC(=S)NC1(O)C(F)(F)F (centres undefined) = ≥ 20 mg/mL
CCOC(=O)C1C(c2ccc(C)cc2)NC(=S)NC1(O)C(F)(F)F (centres undefined) = ≥ 20 mg/mL
CCOC(=O)C1C(c2ccc(OC)cc2)NC(=S)NC1(O)C(F)(F)F (centres undefined) = ≥ 15 mg/mL

In: I have this compound here, CCOC(=O)C1C(c2ccc(C)cc2)NC(=O)NC1(O)C(F)(F)F (centres undefined) , and I need its recorded MIC.
Out: ≥ 20 mg/mL
